Target: T1, human GIP receptor (human) (UniProt P48546)
T1 sequence (looked up): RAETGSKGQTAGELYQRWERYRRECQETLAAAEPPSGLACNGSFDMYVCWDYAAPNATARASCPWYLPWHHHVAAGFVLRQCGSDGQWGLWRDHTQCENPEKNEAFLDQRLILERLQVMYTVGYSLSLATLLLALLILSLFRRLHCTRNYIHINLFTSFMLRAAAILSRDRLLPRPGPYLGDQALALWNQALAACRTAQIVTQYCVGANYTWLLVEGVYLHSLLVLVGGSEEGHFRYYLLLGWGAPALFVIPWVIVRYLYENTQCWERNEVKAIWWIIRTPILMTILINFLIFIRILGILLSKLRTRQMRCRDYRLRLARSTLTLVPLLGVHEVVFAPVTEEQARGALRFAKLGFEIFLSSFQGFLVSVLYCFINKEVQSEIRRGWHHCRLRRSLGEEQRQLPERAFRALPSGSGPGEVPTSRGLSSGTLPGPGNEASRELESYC
Test: cell-based or functional assay
measured attribute: cAMP EC50, Batch 1 (nM)
// return numeric value only (unit: nM, not printed)

Worked cases, cAMP EC50, Batch 1 given:
INSERT INTO measurements (binder, measured_attribute, data_value) VALUES
  ('IP018 (Fc fusion) YSEGTFISDYSIAMDKIHQQDFVNWLLAQKAAAGGSGSTASSGSGSATGGGGAATHTCPPCPAPEF', 'cAMP EC50, Batch 1', 0.0026),
  ('IP187 (Fc fusion) HGEGTFTSDVSSYLEGQAAKEFIAWLVKGAPPGGGGGSGGGGSGGGGSGGGGSATHTCPPCPAPEF', 'cAMP EC50, Batch 1', 540),
  ('IP238 (Fc fusion) HGEGTFTSDVSSYLEGQAAKEFIAWLVKGGGGGGSGGGGSGGGGSAESKYGPPCPPC', 'cAMP EC50, Batch 1', 310),
  ('IP193 (Fc fusion) HGEGTFTSDVSSYLEGQAAKEFIAWLVKGAAAGGSGSTASSGSGSATGGGGCPPCPAPEF', 'cAMP EC50, Batch 1', 450);

Prompt line: // returns reported cAMP EC50, Batch 1 for input IP207 (Fc fusion) YAEGTFISDYSIAMDKIHQQDFVNWLLAQKGKKNDWKHNITQAAAGGSGSTASSGSGSATGGGGAATHTCPPCPAPELL
Response line: 0.0085
